SYSTEM NAME: UniProtKB Q63470
PROTOCOL: Inhibition of rat recombinant GST-fused DYRK1A expressed in Escherichia coli using [gamma-32P] ATP after 30 mins by scintillation counting
pIC50: −log10 of the molar value.
EXPERIMENTAL ENDPOINT: pIC50

[[record]]
line_notation = "Nc1nc2c(-c3cc(Br)c(Br)[nH]3)nccc2[nH]1"
experimental_endpoint = "pIC50"
measurement = 4.52


* * *

Test system: Aorta
PROTOCOL: Antiangiogenic activity in Fischer rat aorta fragments assessed as vessel outgrowth after 5 days
Assay type: functional, tissue-based
RUN CONDITIONS: 120 h
Checkbox rule: IC50 lower than 50 µg/mL = yes; IC50 not lower than 50 µg/mL = no.

[[record]]
line_notation = "Nc1nc2c(-c3ccccn3)nccc2[nH]1"
label_value = "yes"

[[record]]
line_notation = "Nc1nc2ccnc(-c3cc(Br)c(Br)[nH]3)c2[nH]1"
label_value = "yes"

[[record]]
line_notation = "Nc1nc2c(-c3cccs3)nccc2[nH]1"
label_value = "no"

[[record]]
line_notation = "O=C(O)c1cc2nc[nH]c2c(-c2cccc(Br)n2)n1"
label_value = "no"

[[record]]
line_notation = "Nc1nc2c(-c3ccsc3)nccc2[nH]1"
label_value = "no"

[[record]]
line_notation = "Nc1nc2c(-c3ccccc3)nccc2[nH]1"
label_value = "no"

[[record]]
line_notation = "O=C(O)c1cc2nc[nH]c2c(-c2ccccn2)n1"
label_value = "yes"

[[record]]
line_notation = "c1ccc(-c2nccc3nc[nH]c23)nc1"
label_value = "yes"

[[record]]
line_notation = "Nc1nc2c(-c3csc4ccccc34)nccc2[nH]1"
label_value = "yes"


* * *

SYSTEM NAME: Serine/threonine-protein kinase pim-1 (Homo sapiens, UniProt P11309)
Sequence (P11309 whole entry): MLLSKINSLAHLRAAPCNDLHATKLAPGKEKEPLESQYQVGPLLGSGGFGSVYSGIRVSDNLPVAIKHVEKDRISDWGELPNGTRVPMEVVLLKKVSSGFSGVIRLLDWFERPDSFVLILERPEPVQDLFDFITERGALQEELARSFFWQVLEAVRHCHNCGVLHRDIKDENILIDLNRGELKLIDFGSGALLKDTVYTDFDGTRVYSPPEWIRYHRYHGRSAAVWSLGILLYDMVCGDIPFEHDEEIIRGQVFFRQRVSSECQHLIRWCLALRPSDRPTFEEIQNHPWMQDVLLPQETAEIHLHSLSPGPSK
PROTOCOL: Inhibition of human recombinant PIM1 using [gamma-32P] ATP after 30 mins by scintillation counting
pIC50: −log10 of the molar value.
EXPERIMENTAL ENDPOINT: pIC50

[[record]]
line_notation = "Nc1nc2c(-c3cc(Br)c(Br)[nH]3)nccc2[nH]1"
system_name = "Serine/threonine-protein kinase pim-1 (Homo sapiens, UniProt P11309)"
experimental_endpoint = "pIC50"
measurement = 5.00


* * *

PROTOCOL: Binding affinity to DYRK2
EXPERIMENTAL ENDPOINT: Kd (nM)

[[record]]
line_notation = "Nc1nc2c(-c3cnc4ccccc4c3)nccc2[nH]1"
measurement = 970


* * *

SYSTEM NAME: Neutrophil collagenase (Homo sapiens, UniProt P22894)
Sequence (P22894 whole entry): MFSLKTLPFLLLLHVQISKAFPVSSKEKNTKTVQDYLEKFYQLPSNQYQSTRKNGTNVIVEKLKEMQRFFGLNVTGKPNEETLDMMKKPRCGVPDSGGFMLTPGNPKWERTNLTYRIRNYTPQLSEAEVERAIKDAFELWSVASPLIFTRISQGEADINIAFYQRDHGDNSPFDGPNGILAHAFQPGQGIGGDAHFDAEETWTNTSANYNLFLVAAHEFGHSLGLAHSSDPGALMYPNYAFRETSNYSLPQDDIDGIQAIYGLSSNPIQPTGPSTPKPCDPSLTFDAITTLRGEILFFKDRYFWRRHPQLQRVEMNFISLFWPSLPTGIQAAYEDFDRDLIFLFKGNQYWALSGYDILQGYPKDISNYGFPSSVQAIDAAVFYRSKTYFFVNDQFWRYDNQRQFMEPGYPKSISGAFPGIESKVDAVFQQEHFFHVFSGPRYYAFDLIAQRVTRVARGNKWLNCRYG
PROTOCOL: Inhibition of MMP8
pIC50: −log10 of the molar value.
EXPERIMENTAL ENDPOINT: pIC50

[[record]]
line_notation = "Nc1nc2c(-c3cc(Br)c(Br)[nH]3)nccc2[nH]1"
experimental_endpoint = "pIC50"
measurement = 5.96


* * *

PROTOCOL: Toxicity in human IGROV1 cells
Assay type: cell-based, IGROV-1
RUN CONDITIONS: read-out: LD50 (the source's name)
EXPERIMENTAL ENDPOINT: CC50 (µM)

[[record]]
line_notation = "Nc1nc2c(-c3ccccn3)nccc2[nH]1"
experimental_endpoint = "CC50"
measurement = 25


* * *

PROTOCOL: Toxicity in human SK-MEL-5 cells
Type: cell-based
RUN CONDITIONS: read-out: LD50 (the source's name)
EXPERIMENTAL ENDPOINT: CC50

[[record]]
line_notation = "Nc1nc2c(-c3ccccn3)nccc2[nH]1"
experimental_endpoint = "CC50"
measurement = "25 µM"


* * *

SYSTEM NAME: 72 kDa type IV collagenase (Homo sapiens, UniProt P08253)
Sequence (P08253 whole entry): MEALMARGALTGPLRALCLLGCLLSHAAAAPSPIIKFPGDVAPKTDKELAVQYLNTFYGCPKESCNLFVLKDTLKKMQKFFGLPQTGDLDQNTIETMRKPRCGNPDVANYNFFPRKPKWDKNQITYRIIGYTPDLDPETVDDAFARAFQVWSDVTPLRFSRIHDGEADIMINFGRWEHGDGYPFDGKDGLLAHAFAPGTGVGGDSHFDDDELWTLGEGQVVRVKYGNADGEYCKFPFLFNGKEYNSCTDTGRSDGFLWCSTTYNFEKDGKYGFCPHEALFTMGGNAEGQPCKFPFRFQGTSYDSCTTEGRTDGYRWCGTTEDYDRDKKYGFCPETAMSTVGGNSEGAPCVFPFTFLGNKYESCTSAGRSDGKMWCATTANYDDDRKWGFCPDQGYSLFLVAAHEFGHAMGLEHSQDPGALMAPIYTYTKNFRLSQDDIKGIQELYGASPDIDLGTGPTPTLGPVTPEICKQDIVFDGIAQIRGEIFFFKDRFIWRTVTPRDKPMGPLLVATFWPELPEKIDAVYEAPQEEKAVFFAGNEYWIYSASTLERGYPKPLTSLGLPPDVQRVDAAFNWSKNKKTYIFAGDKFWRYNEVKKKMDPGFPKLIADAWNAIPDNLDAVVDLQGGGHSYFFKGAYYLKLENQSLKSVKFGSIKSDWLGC
PROTOCOL: Inhibition of MMP2
pIC50: −log10 of the molar value.
EXPERIMENTAL ENDPOINT: pIC50

[[record]]
line_notation = "Nc1nc2c(-c3cc(Br)c(Br)[nH]3)nccc2[nH]1"
experimental_endpoint = "pIC50"
measurement = 5.47


* * *

SYSTEM NAME: Macrophage metalloelastase (Homo sapiens, UniProt P39900)
Sequence (P39900 whole entry): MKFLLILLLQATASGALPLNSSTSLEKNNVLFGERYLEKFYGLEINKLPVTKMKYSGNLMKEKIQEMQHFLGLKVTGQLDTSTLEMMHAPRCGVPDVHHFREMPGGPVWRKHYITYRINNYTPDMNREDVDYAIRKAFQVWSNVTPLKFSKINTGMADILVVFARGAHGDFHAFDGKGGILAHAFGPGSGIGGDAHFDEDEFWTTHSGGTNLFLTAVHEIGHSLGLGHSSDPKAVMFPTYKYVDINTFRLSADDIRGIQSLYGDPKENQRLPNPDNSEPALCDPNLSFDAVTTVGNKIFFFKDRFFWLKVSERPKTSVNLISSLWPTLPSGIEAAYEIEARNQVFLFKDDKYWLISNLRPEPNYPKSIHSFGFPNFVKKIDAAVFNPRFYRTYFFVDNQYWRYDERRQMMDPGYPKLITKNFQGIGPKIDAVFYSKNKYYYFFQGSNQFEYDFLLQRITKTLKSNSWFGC
EXPERIMENTAL ENDPOINT: IC50

[[record]]
line_notation = "Nc1nc2c(-c3cc(Br)c(Br)[nH]3)nccc2[nH]1"
experimental_endpoint = "IC50"
measurement = "0.924 µM"


* * *

SYSTEM NAME: Calcium/calmodulin-dependent protein kinase kinase 2 (Homo sapiens, UniProt Q96RR4)
Sequence (Q96RR4 whole entry): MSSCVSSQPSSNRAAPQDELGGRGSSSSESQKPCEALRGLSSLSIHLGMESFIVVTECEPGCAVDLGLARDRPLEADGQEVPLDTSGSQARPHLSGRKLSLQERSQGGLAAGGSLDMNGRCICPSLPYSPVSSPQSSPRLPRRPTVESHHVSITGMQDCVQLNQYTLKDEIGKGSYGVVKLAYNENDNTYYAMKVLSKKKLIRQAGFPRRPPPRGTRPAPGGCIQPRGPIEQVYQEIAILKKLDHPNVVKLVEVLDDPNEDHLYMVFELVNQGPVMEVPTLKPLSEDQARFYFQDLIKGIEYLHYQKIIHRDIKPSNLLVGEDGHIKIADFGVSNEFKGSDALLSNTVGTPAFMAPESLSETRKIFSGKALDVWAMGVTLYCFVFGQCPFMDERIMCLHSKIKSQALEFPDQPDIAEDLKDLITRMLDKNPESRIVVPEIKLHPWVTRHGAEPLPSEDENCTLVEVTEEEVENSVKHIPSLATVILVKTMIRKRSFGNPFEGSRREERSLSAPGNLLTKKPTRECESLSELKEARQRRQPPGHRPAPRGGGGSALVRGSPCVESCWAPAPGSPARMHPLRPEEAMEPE
PROTOCOL: Binding affinity to CAMKK2
pKd: −log10 of the molar value.
EXPERIMENTAL ENDPOINT: pKd

[[record]]
line_notation = "Nc1nc2c(-c3ccccn3)nccc2[nH]1"
measurement = 4.40


* * *

PROTOCOL: Inhibition of starfish oocytes CDK1/cyclin B using [gamma-32P] ATP after 30 mins by scintillation counting
Set-up: species or system Asteroidea
RUN CONDITIONS: oocyte
EXPERIMENTAL ENDPOINT: IC50 (µM)

[[record]]
line_notation = "Nc1nc2c(-c3ccsc3)nccc2[nH]1"
measurement = 40


* * *

SYSTEM NAME: Casein kinase I isoform alpha (Sus scrofa, UniProt O19175)
Sequence (O19175 whole entry, canonical isoform): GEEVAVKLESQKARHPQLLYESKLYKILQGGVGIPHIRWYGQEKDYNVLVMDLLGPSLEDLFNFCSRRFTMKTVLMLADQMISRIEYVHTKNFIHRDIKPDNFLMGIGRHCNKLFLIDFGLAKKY
PROTOCOL: Inhibition of porcine brain CK1 using RRKHAAIGpSAYSITA as substrate
pIC50: −log10 of the molar value.
Some compounds, each annotated with its measured pIC50.
EXPERIMENTAL ENDPOINT: pIC50

[[record]]
compound = "Nc1nc2c(-c3ccccn3)nccc2[nH]1"
experimental_endpoint = "pIC50"
measurement = 5.00

[[record]]
compound = "Nc1nc2c(-c3cc(Br)c(Br)[nH]3)nccc2[nH]1 [AGELADINE A]"
experimental_endpoint = "pIC50"
measurement = 4.30


Reference source: ChEMBL document CHEMBL2150858
